# Tested on: UO-31 renal
# method-notes: NCI-60 one-dose screen, 48 h (100 = growth as untreated, 0 = no growth, -100 = all killed)
# condition-details: 10 µM unless noted
About 83,000 compounds went through this panel and 20% of them were active in at least one assay; those are over-represented in the sample as a whole.
measured-endpoint: growth (%)
Report the value in % with no unit label.

Ask | Determine its reported growth: COc1ccc(-c2nc3cc(Cl)c(Cl)cc3n2CC(=O)N=Nc2c(O)[nH]c3ccccc23)cc1
Reply | 76.9

Ask | Determine its reported growth: CCCCCc1ccc(S(=O)(=O)N(C(C)=O)c2cccc(-c3csc(N(CCN4CCN(C)CC4)C(C)=O)n3)c2)cc1
Reply | -69.2

Ask | Determine its reported growth: N/C(=N\c1nc2ccc([N+](=O)[O-])cc2s1)C(Cl)(Cl)Cl
Reply | 43.8

Ask | Determine its reported growth: O=C1c2cc(Br)ccc2-n2c1nc1cc(Br)ccc1c2=O
Reply | 62.6

Ask | Determine its reported growth: CC(=O)C1=NN(c2ccc(Cl)cc2)C(=O)CN1C
Reply | 93

###

# Tested on: CCRF-CEM leukemia
# method-notes: NCI-60 one-dose screen, 48 h (100 = growth as untreated, 0 = no growth, -100 = all killed)
# condition-details: 10 µM unless noted
This is part of a sample that, as a whole, favours compounds with a hit. Of some 83,000 tested, about 20% had one in any assay.
Decision: growth >= 20% yields MET, all other cases yield NOT MET.

Ask | Test whether the molecule Cn1cc(-c2nn3cc(-c4cccnc4)nc3s2)c2cc(F)ccc21 records growth of 20% or higher.
Reply | MET

Ask | Test whether the molecule COc1ccc(NS(=O)(=O)c2ccc(-c3cnc(C4CC4)o3)cc2)cc1Cl records growth of 20% or higher.
Reply | NOT MET

Ask | Test whether the molecule Nc1nc(-c2cccc([N+](=O)[O-])c2)c(N=Nc2ccccc2[N+](=O)[O-])s1 records growth of 20% or higher.
Reply | MET

Ask | Test whether the molecule COc1cc(-c2noc(C[C@@H](NC(=O)OCc3ccccc3)C(C)C)n2)cc(OC)c1OC records growth of 20% or higher.
Reply | MET

Ask | Test whether the molecule CCN(CC)CCN1C(=O)c2c(c3c4cc(Br)ccc4[nH]c3c3ccc4ccccc4c23)C1=O records growth of 20% or higher.
Reply | NOT MET

Ask | Test whether the molecule N#Cc1c(NC(=O)c2ccccc2C(F)(F)F)sc2c1CCC(=O)C2 records growth of 20% or higher.
Reply | NOT MET

Ask | Test whether the molecule COc1ccc2c(c1)c(-c1nn3c(=O)cc(-c4ccccc4)nc3s1)cn2C records growth of 20% or higher.
Reply | MET

Ask | Test whether the molecule COc1cc(C2CC(c3ccc(Nc4nc(NCCO)nc(Nc5ccc(Cl)cc5)n4)cc3)=Nc3c(N)nc(N)nc3N2)cc(OC)c1OC (centres undefined) records growth of 20% or higher.
Reply | MET

Ask | Test whether the molecule O=S(=O)(Nc1ccc(I)c(Cl)c1)c1ccc(-c2cnc(C3CC3)o2)cc1 records growth of 20% or higher.
Reply | NOT MET

###

# System: HOP-62 NSCLC
# method-notes: NCI-60 one-dose screen, 48 h (100 = growth as untreated, 0 = no growth, -100 = all killed)
# condition-details: 10 µM unless noted
# Description: Growth inhibition of the HOP-62 human Non-Small Cell Lung tumor cell line is measured as a screen for anti-cancer activity. Cells are grown in 96 well plates and exposed to the test compound for 48 hours. Compounds are tested at a single concentration, which is 10^-5 M for most compounds. The reported endpoint is percent growth (GI% or GIPRCNT), where numbers from 0 - 100% represent growth inhibition, and numbers from -100% - 0 represent cell death. […]
The panel holds about 83,000 compounds, 20% with a hit somewhere; the sample as a whole holds those more often.
Classes by growth: low end: < 50%; middle: ≥ 50% and < 90%; high end: ≥ 90%

Ask | Please let me know in which category the item C#C[C@]1(O)CC[C@H]2[C@@H]3CC=C4c5sc(Nc6cccc(C)n6)nc5CC[C@]4(C)[C@H]3CC[C@@]21C belongs.
Reply | low end

Ask | Please let me know in which category the item O=C1[C@@H]2Cc3c([nH]c4ccccc34)[C@H](c3c(Cl)cccc3Cl)N2C(=O)CN1C1CCN(Cc2c(F)cccc2F)CC1 belongs.
Reply | high end

Ask | Please let me know in which category the item COc1cc(OC)c(S(N)(=O)=O)cc1C(=O)/C=C/c1ccccc1 belongs.
Reply | low end

Ask | Please let me know in which category the item COc1cc(C(=O)C[n+]2ccc3ccccc3c2)cc(OC)c1OC belongs.
Reply | high end

Ask | Please let me know in which category the item COc1ccc(/C=N/Nc2nc(N/N=C/c3ccc(OC)cc3O)nc(N3CCOCC3)n2)c(O)c1 belongs.
Reply | middle

###

# Test system: NCI-H23 lung
# method-notes: NCI-60 one-dose screen, 48 h (100 = growth as untreated, 0 = no growth, -100 = all killed)
# condition-details: 10 µM unless noted
This is part of a sample that, as a whole, favours compounds with a hit. Of some 83,000 tested, about 20% had one in any assay.
measured-endpoint: growth (%)
Report the value in % with no unit label.

Ask | # return growth for O=C(COc1ccc(C2SCC(=O)N2c2ccccc2)cc1)c1ccccc1 (centres undefined) , test system: NCI-H23 lung
Reply | 94

Ask | # return growth for O=c1[nH]c(CCl)nc2c1cnn2-c1ccccc1 , test system: NCI-H23 lung
Reply | 101

Ask | # return growth for Brc1cccc(/C=N/Nc2nc(N/N=C/c3cccc(Br)c3)nc(N3CCOCC3)n2)c1 , test system: NCI-H23 lung
Reply | 43.1

Ask | # return growth for Oc1ccccc1-c1nnc(SCc2ccc(O)c3ncccc23)n1-c1ccccc1 , test system: NCI-H23 lung
Reply | 17.4

Ask | # return growth for NS(=O)(=O)c1ccc(Nc2nc(N/N=C/c3ccc(C(F)(F)F)cc3)nc(Nc3ccccc3)n2)cc1 , test system: NCI-H23 lung
Reply | 52.8

Ask | # return growth for C=C(C)[C@@H]1CC[C@]2(C(=O)ON)CC[C@]3(C)[C@H](CC[C@@H]4[C@@]5(C)C/C(=C/c6ccc(Br)cc6)C(=O)C(C)(C)[C@@H]5CC[C@]43C)[C@@H]12 , test system: NCI-H23 lung
Reply | 78.4

Ask | # return growth for CN1CCN(c2ccc3c(C(N)=O)c(NC(=O)c4ccc(C(C)(C)C)cc4)sc3c2)CC1 , test system: NCI-H23 lung
Reply | 79.7

Ask | # return growth for NC(=O)C(=Cc1ccc(Cl)cc1)C(N)=O , test system: NCI-H23 lung
Reply | 74.5

Ask | # return growth for CCC(CC)n1c(=O)c(SC2=NC3C(NN2)N(CC)C(=O)N3CC)c(C(=O)O)c2ccccc21 (centres undefined) , test system: NCI-H23 lung
Reply | 11.7

Ask | # return growth for O=c1cc(-c2ccccc2)nc2sc(-c3c[nH]c4ccc(F)cc34)nn12 , test system: NCI-H23 lung
Reply | 73.2

Ask | # return growth for Cc1cc(Cl)cc(NS(=O)(=O)c2ccc(-c3cnc(C4CC4)o3)cc2)c1 , test system: NCI-H23 lung
Reply | 35.7

Ask | # return growth for CN1CCN(c2ccc(NC(=O)Nc3ccc4c(ccn4-c4cccc(C(N)=O)n4)c3)cc2C(F)(F)F)CC1 , test system: NCI-H23 lung
Reply | 72.5

Ask | # return growth for CC(C)Sc1nc(NC2CC2)c(C#N)c(-c2ccccc2)n1 , test system: NCI-H23 lung
Reply | 67.5

Ask | # return growth for CCOC(=O)Nc1cccc(-n2cnc3cc(-c4ccc(O)cc4)ccc32)c1 , test system: NCI-H23 lung
Reply | 32.3

###

I'd appreciate it if you could supply growth values for the items below.
# System: MDA-MB-435 melanoma
# method-notes: NCI-60 one-dose screen, 48 h (100 = growth as untreated, 0 = no growth, -100 = all killed)
# condition-details: 10 µM unless noted
Compounds without any hit were thinned out: in the full panel of roughly 83,000, 20% have a hit.
Report the value in % with no unit label.

Ask | Determine its reported growth: COc1ccc(C(=O)n2cc(C=O)c3ccccc32)cc1
Reply | 88.8

Ask | Determine its reported growth: CN1C(=O)N(C)C2Nn3c(s/c(=C\c4ccccn4)c3=O)=NC21 (stereo not drawn)
Reply | 99.2

Ask | Determine its reported growth: C=C(C)C(=O)O[C@H]1C[C@@]2(C)OC(=CC2=O)/C(CO)=C\[C@H]2OC(=O)C(=C)[C@H]12
Reply | -71

Ask | Determine its reported growth: Cc1ccc(S(=O)(=O)N/N=C/c2cn(-c3ccc(F)cc3)nc2-c2ccc(S(C)(=O)=O)cc2)cc1
Reply | 100

Ask | Determine its reported growth: CCCCOc1ccc(S(=O)(=O)N2CCN(c3nccc(N4CCOCC4)n3)CC2)cc1
Reply | 14.5

Ask | Determine its reported growth: Nc1nc(N)c2c(n1)NC(c1ccccc1)CC(c1ccc(Nc3nc(NCCO)nc(Nc4ccc(Cl)cc4)n3)cc1)=N2 (stereo not drawn)
Reply | 41.8

Ask | Determine its reported growth: Oc1ccc(-c2nnc(SCc3ccc(O)c4ncccc34)o2)cc1
Reply | 12.3

Ask | Determine its reported growth: O=C(NCCNc1cc(-c2cn(-c3ccccc3)nc2-c2cccc(O)c2)ccn1)Nc1ccc(Cl)c(C(F)(F)F)c1
Reply | 52.8

Ask | Determine its reported growth: Cc1cc(=O)n2nc(-c3c[nH]c4ccccc34)sc2n1
Reply | 103

Ask | Determine its reported growth: Cc1cnc2nc(NN)[nH]n12
Reply | 99.7

Ask | Determine its reported growth: CCCCCCNC(=O)Oc1ccc(/C(=C(\C)c2ccc(OC)cc2)c2ccc(OCCN(C)C)cc2)cc1
Reply | 87.7

Ask | Determine its reported growth: O=C(N/N=C\c1ccc(Cl)cc1)c1ccc2nc(-c3ccc(Br)cc3)[nH]c2c1
Reply | 3.54

Ask | Determine its reported growth: Cc1ccc(NC(=O)c2ccc(CN3CCN(C)CC3)c(I)c2)cc1Oc1ccc(-c2[nH]nc3ncnc(N)c23)cc1
Reply | -67.5

Ask | Determine its reported growth: O=C1/C(=C/c2ccc([N+](=O)[O-])cc2)SC(=Nc2ccccc2)N1Nc1ccccc1
Reply | 71.1

Ask | Determine its reported growth: COC[C@@]1(C)CC[C@]2(C)CC[C@]3(C)C(=CC[C@@H]4[C@@]5(C)CCCNC(C)(C)[C@@H]5CC[C@]43C)C2C1 (stereo partly drawn)
Reply | 44.2

Ask | Determine its reported growth: COc1ccc([C@H]2[C@H](O)C(=O)N2c2cc(OC)c(OC)c(OC)c2)cc1
Reply | -12.9

Ask | Determine its reported growth: CC1(C)CC[C@]2(C(=O)O)CC[C@]3(C)C(=CCC4[C@@]5(C)C[C@@H](O)[C@@H]6OC(c7ccccc7O)OC[C@@]6(C)C5CC[C@]43C)C2C1 (stereo partly drawn)
Reply | 77.5

Ask | Determine its reported growth: O=C(NCCCNc1cc(-c2cn(-c3ccccc3)nc2-c2cccc(O)c2)ccn1)Nc1cc(C(F)(F)F)cc(C(F)(F)F)c1
Reply | 75.3
